Molecular target: MRO
Assay: pooled miR-30 sensor sort-seq; sequence = guide strand; further: reference of the scale not given here
Conditions: shRNA
EXPERIMENTAL_ENDPOINT: sensor-assay potency score (higher = more potent)

{"columns": ["MONOMER_SEQUENCE", "OBSERVED_VALUE"],
 "data": [
  ["TATACTTTCTCACCTTGTCAGG", -0.957],
  ["TTTGATCTTCTTCACTCTGGAA", -0.504],
  ["TTGTTTTGCAAGCCTTGGCAAC", -1.43],
  ["TATCATTGATGTCCTTTTCTGC", -0.559],
  ["TTTTCTTATACTTTCTCACCTT", 0.132],
  ["ATACAGTCCATACACCAGCAGG", -1.19],
  ["AAGAACTGCAGGATCTCTGGAT", 0.374]
]}

###

# sensor-assay potency score (higher = more potent) annotations
Target: XKRX
Assay: pooled miR-30 sensor sort-seq; sequence = guide strand
Settings: shRNA
EXPERIMENTAL_ENDPOINT: sensor-assay potency score (higher = more potent)

{"columns": ["MONOMER_SEQUENCE", "TARGET_ENTITY", "OBSERVED_VALUE"],
 "data": [
  ["TTATCTTTGGCTAGATCTCTGT", "XKRX", -0.472],
  ["TAAACTCTGTCCATTGTCGAGG", "XKRX", -0.536],
  ["TAAATGGAAAAGTAAATCGGGG", "XKRX", -0.48],
  ["TTCAGTAACACTTTCACTCCAA", "XKRX", 0.565],
  ["AATACCATTAGCACAACTCTAC", "XKRX", -0.637],
  ["TTCTCTACCAACCTCACACTAT", "XKRX", -0.943],
  ["TCTATTAGCATCTTCTTTCGGG", "XKRX", 0.547]
]}

###

Molecular target: GRIA1
Assay: pooled miR-30 sensor sort-seq; sequence = guide strand
Settings: shRNA
Values of sensor-assay potency score (higher = more potent) greater than or equal to -0.4 map to label 1; values below map to label 0.

{"columns": ["MONOMER_SEQUENCE", "LABEL"],
 "data": [
  ["TATAACTTCTTCCCGGACCAAA", "label 0"],
  ["TTATCGTACCACCATTTGCTTT", "label 0"],
  ["TTTCTCATTAAACTGCACGTTT", "label 1"],
  ["TATCGTACCACCATTTGCTTTT", "label 1"],
  ["TTGACTGCTGTCACCTGCCAGT", "label 0"],
  ["TTTGTTTAAGTCAATGTCCATG", "label 0"]
]}

###

Molecular target: OSBPL2
Assay: pooled miR-30 sensor sort-seq; sequence = guide strand
Conditions: shRNA
EXPERIMENTAL_ENDPOINT: sensor-assay potency score (higher = more potent)

{"columns": ["MONOMER_SEQUENCE", "TARGET_ENTITY", "OBSERVED_VALUE"],
 "data": [
  ["TTCAGGATGGTCCACACGCTGA", "OSBPL2", -1.77],
  ["TTGAAGGCGATTGGCATCGTGA", "OSBPL2", -0.348],
  ["TCTAAGTCAATCATTCCCGTGA", "OSBPL2", 0.725],
  ["TAGAATTACATCCTTGATCAGG", "OSBPL2", -0.471],
  ["TTCTCTCTGCTTCTCCTCCAGC", "OSBPL2", -1],
  ["TTTTGTCTTGAATGTGTCCTTC", "OSBPL2", 0.333],
  ["TTTGTTTTTGTCTTGAATGTGT", "OSBPL2", 0.222]
]}
